system: Chlorella protothecoides; assay: Effect of hormone concentrations on growth rate, photoheterotrophic conditions, 48 hours; assay type: cell-based; set-up: unit not given here; settings: hormone 1 ng, control 1.05 ± 0.020
Use Condition met when the recorded growth rate is no lower than 1; use Condition not met when it is lower.

# smiles-notation, class
rows = [
    ("c1ccc(CNc2ncnc3nc[nH]c23)cc1", "Condition met"),
    ("O=C(O)Cc1c[nH]c2ccccc12", "Condition not met"),
]

Problem: Does the reported growth rate for O=C(O)Cc1cccc2ccccc12 fall at or above the 1 mark?
Result: Condition met

* * *

tested on: Chlorella protothecoides; assay: Effect of hormone concentrations on growth rate, photoheterotrophic conditions, 48 hours; assay type: cell-based; design: unit not given here; conditions: hormone 0.1 ng, control 1.05 ± 0.020
Entries and their growth rate values follow.
Provide a numeric answer; units are not to be included.

Recorded growth rate, per entry:
# smiles-notation, measurement-label, assay-value
data = [
    ("O=C(O)Cc1cccc2ccccc12", "growth rate", 1.02),
    ("O=C(O)Cc1c[nH]c2ccccc12", "growth rate", 1.05),
    ("C=C1C[C@]23C[C@@]1(O)CC[C@H]2[C@@]12C=C[C@H](O)[C@@](C)(C(=O)O1)[C@H]2[C@@H]3C(=O)O", "growth rate", 1.02),
]

Problem: Sample O=C(O)COc1ccc(Cl)cc1Cl — what was its growth rate?
Result: 1.08

Problem: Reported growth rate for c1coc(CNc2ncnc3[nH]cnc23)c1 : what is it?
Result: 1.10

Problem: So what does the record say about growth rate for c1ccc(CNc2ncnc3nc[nH]c23)cc1 ?
Result: 1.12
